These entries and their values trace back to the supplement of paper PMC7411054.

# System: HepG2-TP53BP1-CLTA
# EXPERIMENT: phenotypically active (imaging signature differs from DMSO and reproducible) at any of 0.3-9 uM (binary (1 = active, 0 = inactive)); higher = active
# EXPERIMENTAL CONTEXT: treatment time: 24 h
The reply should be one of these categories: class 1 for active, class 0 for inactive

Field: example entries. Status: answers known.
COMPOUND: CC(C)c1ccc2oc3nc(N)c(C(=O)O)cc3c(=O)c2c1 [Amlexanox]
ASSIGNED CATEGORY: class 0
--
COMPOUND: CCN1CCN(c2cc(-c3ccc(F)cc3)c3c(n2)CCCCCC3)CC1 [blonanserin]
ASSIGNED CATEGORY: class 1

What call does the record list for CCCCC(=O)O[C@H]1CC[C@H]2[C@@H]3CCc4cc(O)ccc4[C@H]3CC[C@]12C [estradiol valerate] ? class 0

// same read-out, input: O[C@H](CNC[C@H](O)[C@@H]1CCc2cc(F)ccc2O1)[C@@H]1CCc2cc(F)ccc2O1 [nebivolol] class 1
